# Tested on: U-251
# Assay details: NCI tumour cell line growth inhibition, 48 h
Calls of active or inactive are those of the source. No stated cut-off is given here; in the data, active = GI50 up to about 1.1 µM and inactive = higher. Non-standard residues stand in square brackets, D forms with d. Residues, ends and D or L forms follow the SMILES beside them.
Hi! Could you answer with just one of these? yes (active), no (inactive)

// below: answered molecules
Molecule	Group
CC(C)C[C@H](NC(=O)[C@H](CC(C)C)NC(=O)[C@@H](Cc1c[nH]c2ccccc12)NC(=O)[C@H](Cc1ccccc1)NC(=O)[C@@H](Cc1c[nH]c2ccccc12)NC(=O)[C@H](CCC(N)=O)NC(=O)[C@H](CCC(N)=O)NC(=O)[C@H]1CCCN1C(=O)[C@@H](N)CCCCN)C(N)=O (H-K[dP]QQ[dW]F[dW]LL-NH2)	no
CC1(C)N=C(N)N=C(N)N1c1cccc(CSc2ccccc2)c1	yes

Prompt line: Recorded test outcome, item COc1cc([N+](=O)[O-])c(S(=O)(=O)O)cc1-n1nc(-c2ccccc2)n[n+]1-c1cc(S(=O)(=O)[O-])c([N+](=O)[O-])cc1OC
Response line: no

====

molecules and their reported GI50
# System: T47D
# Assay details: NCI tumour cell line growth inhibition, 48 h
Calls of active or inactive are those of the source. No stated cut-off is given here; in the data, active = GI50 up to about 1.1 µM and inactive = higher.

> print(dat)
                                   molecule  measurement.kind      recorded.value
1  COc1ccc(/N=N\c2c(N)nn3c(SC)c(C#N)c(N)nc23)cc1              GI50  1.85 µM (inactive)

Field GI50 (entry CCCCCCCCCCCC[C@@H](O)[C@H]1CC[C@H]([C@H](O)CCCC[C@H](O)CCCCC[C@@H](O)CC2=C[C@H](C)OC2=O)O1 ) reads 2.39 µM (inactive)

Field GI50 (entry c1csc(C(NC2=NCCO2)C2CC2)c1 (stereo not given) ) reads > 100 µM (inactive)

Field GI50 (entry CCC1(C(=O)OC(C)(C)C)OC12C(C)CCCC2C (stereo not given) ) reads 32.9 µM (inactive)

Field GI50 (entry CC(CC(=O)N1C2CC3CCC2(CS1(=O)=O)C3(C)C)[Si](C)(C)C (stereo not given) ) reads > 100 µM (inactive)

Field GI50 (entry COC(=O)C1Cc2c(OC)ccc(OC)c2C(O)C1C(=O)OC (stereo not given) ) reads > 100 µM (inactive)

Field GI50 (entry CC1=C(C(=O)N(C(C)C)C(C)C)CC(C(=O)N(C(C)C)C(C)C)=C(C)N1 ) reads 49.3 µM (inactive)

Field GI50 (entry COc1ccc2c(-c3csc(-c4c[nH]c5ccc(Br)cc45)n3)c[nH]c2c1 ) reads 59.3 µM (inactive)

Field GI50 (entry Cn1c(=O)c2c(ncn2CN2CCN(Cn3cnc4c3c(=O)n(C)c(=O)n4C)CC2)n(C)c1=O ) reads 30.5 µM (inactive)

Field GI50 (entry O=C(O)CC1(C(=O)O)CCCCC1 ) reads > 100 µM (inactive)

====

compounds and their reported GI50
# Test system: DLD-1
# Assay details: NCI tumour cell line growth inhibition, 48 h
Active and inactive are the calls of the source. Rule as the data show it: active = GI50 up to about 1.1 µM and inactive = higher.

Below: 9 compounds and their reported GI50.
> print(dat)
                                   compound  measurement.kind       recorded.value
1  COc1ccc(N2C(=O)[C@@H]3[C@@H]4CC(C)CC[C@@H]4c4c([nH]c5ccccc45)[C@@H]3C2=O)cc1 (stereo not given in full)              GI50   29.5 µM (inactive)
2  CCOC(=O)C(c1ccsc1)P(=O)(OCC)OCC (stereo not given)              GI50   12.8 µM (inactive)
3  CC(=O)OCC1OC(n2cc([N+](=O)[O-])c(=O)[nH]c2=O)C(OC(C)=O)C(OC(C)=O)C1OC(C)=O (stereo not given)              GI50  > 100 µM (inactive)
4  c1ccc(C2OC3(CCC[C@H]4C[C@H]43)O[C@H]2c2ccccc2)cc1 (stereo not given in full)              GI50   78.9 µM (inactive)
5  Cc1noc(/N=C2\C=C(Nc3onc(C)c3C)C(=O)c3ccccc32)c1C              GI50   96.8 µM (inactive)
6  CC1(C)CC(=O)C(/C(=N/NC(=S)NN)C(=O)Nc2nc3ccc([N+](=O)[O-])cc3s2)C(=O)C1              GI50  > 100 µM (inactive)
7            Cc1nc(=O)n2c(C)n[nH]c2c1C(=O)O              GI50  > 100 µM (inactive)
8  NC(CNc1ccc(O)cc1)C(=O)O (stereo not given)              GI50  > 100 µM (inactive)
9  COC(=O)CCC(=O)NC1C2CC3CC(C2)CC1C3 (stereo not given)              GI50  > 100 µM (inactive)

Lab note: next compound to report on.
I looked up N#CC(C(=O)C(=O)Nc1ccc(Cl)cc1)c1ccccc1 (stereo not given) and its GI50 for DLD-1 was > 100 µM (inactive)

====

# Tested on: UO-31
# Assay details: NCI tumour cell line growth inhibition, 48 h
Active and inactive are the calls of the source. Cut-off read from the data, not from the text of the source: active = GI50 up to about 1.1 µM and inactive = higher.
molecules and their reported GI50

> print(dat)
                                test.smiles       recorded.value
1  C=C1c2nc3ccccc3n2C=C(c2ccc(OC)cc2)N1c1ccc(OCCN2CCCCC2)cc1   8.22 µM (inactive)
2  COC(=O)c1nc(N)nc(C(=O)OC)c1C(=O)c1ccccc1  > 100 µM (inactive)
3  O=C(NCCCCCCNCc1cccc2ccccc12)Nc1cccc2ccccc12   51.6 µM (inactive)
4       CCOC(=O)c1nc2ccccc2nc1Oc1ccc(OC)cc1  > 100 µM (inactive)

Field GI50 (entry CN1Cc2c(nc(-c3ccccc3)c[n+]2[O-])N(C)C1 ) reads > 100 µM (inactive)

====

# Test system: HT-29
# Assay details: NCI tumour cell line growth inhibition, 48 h
Calls of active or inactive are those of the source. Rule as the data show it: active = GI50 up to about 1.1 µM and inactive = higher.
Measurement kind: GI50

> print(dat)
                                   compound       recorded.value
1  CC1=C(C)CC2(CCCCC2=O)[S+]([O-])C1 (stereo not given)  > 100 µM (inactive)

Field GI50 (entry COC(=O)c1nc(N)nc(C(=O)OC)c1C(=O)c1ccccc1 ) reads > 100 µM (inactive)

Field GI50 (entry COc1ccc(N2C(=O)[C@@H]3[C@@H]4CC(C)CC[C@@H]4c4c([nH]c5ccccc45)[C@@H]3C2=O)cc1 (stereo not given in full) ) reads 47.4 µM (inactive)

Field GI50 (entry C/C(Cl)=N\OC(=O)Nc1ccc([N+](=O)[O-])cc1 ) reads 9.71 µM (inactive)

Field GI50 (entry COC(=O)C1=C(C)NC(C)=C(C(=O)OC)C1c1cccc(/[N+]([O-])=C/c2ccccc2)c1 ) reads 28.3 µM (inactive)

Field GI50 (entry CC(=O)OC12c3ccccc3C1CCCC21OCCCO1 (stereo not given) ) reads > 100 µM (inactive)

Field GI50 (entry N[C@@H]1c2c(Br)sc(Br)c2[C@H](O)[C@@H]1O ) reads > 100 µM (inactive)

Field GI50 (entry O=C(Nc1cccc(C(F)(F)F)c1)c1cc(-c2ccccc2)nc(S)n1 ) reads > 100 µM (inactive)

Field GI50 (entry CCOC(=O)NC1CC2CCC1(OC)C=C2C (stereo not given) ) reads > 100 µM (inactive)

Field GI50 (entry CCc1cc2c(c3c1CCCC3)CC1(Cc3ccc(C(=O)OC)cc3C1)C2 (stereo not given) ) reads 73.8 µM (inactive)

====

# System: UACC-257
# Assay details: NCI tumour cell line growth inhibition, 48 h
The source made the active and inactive calls. Cut-off read from the data, not from the text of the source: active = GI50 up to about 1.1 µM and inactive = higher.
Measurement kind: GI50

> print(dat)
                                   compound  subject.of.test       recorded.value
1  COC(=O)/C(=N\NC(N)=O)C(C#N)c1ccccc1 (stereo not given)         UACC-257  > 100 µM (inactive)
2  CSC1=NS(=O)(=O)c2cc(C(=O)NN(C)C(=O)c3cc4c(cc3Cl)SC(SC)=NS4(=O)=O)c(Cl)cc2S1         UACC-257   > 10 µM (inactive)
3  CS(=O)(=O)N1CC(CCl)c2ccc(NCCN)cc21 (stereo not given)         UACC-257  > 100 µM (inactive)
4                   NC(=O)/C=C/NC(=O)/C=N\O         UACC-257  > 100 µM (inactive)
5  COc1ccc(N2C(=O)[C@@H]3[C@@H]4CC(C)CC[C@@H]4c4c([nH]c5ccccc45)[C@@H]3C2=O)cc1 (stereo not given in full)         UACC-257   53.8 µM (inactive)

Field GI50 (entry CC(C)(C)OC(=O)Cn1ncn(NC(=O)Cc2ccccc2)c1=O ) reads > 10 µM (inactive)

Field GI50 (entry O=[N+]([O-])/C=C/c1c(Cl)cccc1Cl ) reads 3.09 µM (inactive)

Field GI50 (entry N#Cc1c(O)c(/C=N/c2ccc(Cl)cc2)c(=O)n2c1[nH]c1ccccc12 ) reads > 100 µM (inactive)

Field GI50 (entry Cc1cc(C)c2c(c1)N[S@@](=O)S2 ) reads 16.6 µM (inactive)

Field GI50 (entry N=C(N)SCc1ccc(Cl)cc1Cl.O=[N+]([O-])c1c(O)c(Cl)cc(Cl)c1Cl ) reads 7.73 µM (inactive)
